System: 883617-216-R-J1-PDC complex spheroid viability;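 note: spheroids exposed to compounds for seven days before readout; 100% = DMSO vehicle control viability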
Assay: Anticancer human tumor 883617-216-R-J1-PDC patient-derived bladder carcinoma cell line growth inhibition [POLQ]; active = viability on the fitted dose curve at most 10% of control; inactive = the rest
Details: second compound 1 µM; first compound 3.16 µM
Outcome (select one): 1.0 = active, 0.0 = inactive

Task item: Each molecule tested received a call. Report the one for COc1cc2cc(C(=O)CCC(=O)O)sc2cc1OC + COC1C(OC(N)=O)C(O)C(Oc2ccc3c(O)c(NC(=O)c4ccc(O)c(CC=C(C)C)c4)c(=O)oc3c2C)OC1(C)C .
Reply: 0.0

Task item: Each molecule tested received a call. Report the one for C#Cc1c(F)ccc2cc(O)cc(-c3ncc4c(N5CC6CCC(C5)N6)nc(OCC56CCCN5CC(F)C6)nc4c3F)c12 (stereo not given) + Nc1ccc(C#CCN(C(=O)Cc2ncc(C(F)(F)F)cc2C(F)(F)F)c2ccc(F)cc2)nn1 .
Reply: 0.0

Task item: Each molecule tested received a call. Report the one for COc1ccc([C@@H](O)c2cc(-c3ncnc4cc(N5CCOCC5)ccc34)c(F)cc2Cl)nn1 + Nc1ccc(C#CCN(C(=O)Cc2ncc(C(F)(F)F)cc2C(F)(F)F)c2ccc(F)cc2)nn1 .
Reply: 0.0

Task item: Each molecule tested received a call. Report the one for O=C(Nc1ccc(O)c(NS(=O)(=O)c2ccc(F)cc2)c1)c1ccc(-c2ccccc2)cc1 + COC1C(OC(N)=O)C(O)C(Oc2ccc3c(O)c(NC(=O)c4ccc(O)c(CC=C(C)C)c4)c(=O)oc3c2C)OC1(C)C .
Reply: 0.0

Task item: Each molecule tested received a call. Report the one for C=CC(=O)N1CCN(c2nc(=O)n(-c3c(C)ccnc3C(C)C)c3nc(-c4c(O)cccc4F)c(F)cc23)C(C)C1 (stereo not given) + Nc1ccc(C#CCN(C(=O)Cc2ncc(C(F)(F)F)cc2C(F)(F)F)c2ccc(F)cc2)nn1 .
Reply: 0.0

Task item: Each molecule tested received a call. Report the one for CCc1cc2c(N3CCc4c(cc(Cn5ccnc5)cc4-c4cn(C)nc4C(F)(F)F)C3=O)cc(C)nc2c(OC)n1 + COC1C(OC(N)=O)C(O)C(Oc2ccc3c(O)c(NC(=O)c4ccc(O)c(CC=C(C)C)c4)c(=O)oc3c2C)OC1(C)C .
Reply: 0.0

Task item: Each molecule tested received a call. Report the one for COc1cc(C2c3cc4c(cc3C(OC3OC5COC(C)OC5C(O)C3O)C3COC(=O)C23)OCO4)cc(OC)c1O (stereo not given) + Cc1cccc(N(C)C(=O)C2C(O)CCN2c2nc(C)cc(C(F)(F)F)c2C#N)c1 .
Reply: 0.0

Task item: Each molecule tested received a call. Report the one for CCCS(=O)(=O)Nc1ccc(F)c(C(=O)c2c[nH]c3ncc(-c4ccc(Cl)cc4)cc23)c1F + Nc1ccc(C#CCN(C(=O)Cc2ncc(C(F)(F)F)cc2C(F)(F)F)c2ccc(F)cc2)nn1 .
Reply: 0.0

Task item: Each molecule tested received a call. Report the one for CC(C)n1c(=O)n(C)c2cnc3cc(F)c(-c4ccc(OCCCN5CCCCC5)nc4)cc3c21 + Cc1cccc(N(C)C(=O)C2C(O)CCN2c2nc(C)cc(C(F)(F)F)c2C#N)c1 .
Reply: 0.0

Task item: Each molecule tested received a call. Report the one for CC1COCCN1c1cc(C2(S(C)(=N)=O)CC2)nc(-c2ccnc3[nH]ccc23)n1 (stereo not given) + Nc1ccc(C#CCN(C(=O)Cc2ncc(C(F)(F)F)cc2C(F)(F)F)c2ccc(F)cc2)nn1 .
Reply: 0.0

Task item: Each molecule tested received a call. Report the one for O=c1[nH]cc(F)c(=O)[nH]1 + COC1C(OC(N)=O)C(O)C(Oc2ccc3c(O)c(NC(=O)c4ccc(O)c(CC=C(C)C)c4)c(=O)oc3c2C)OC1(C)C .
Reply: 0.0

Task item: Each molecule tested received a call. Report the one for CCCS(=O)(=O)Nc1ccc(F)c(C(=O)c2c[nH]c3ncc(-c4ccc(Cl)cc4)cc23)c1F + Cc1cccc(N(C)C(=O)C2C(O)CCN2c2nc(C)cc(C(F)(F)F)c2C#N)c1 .
Reply: 0.0

Task item: Each molecule tested received a call. Report the one for CC1COCCN1c1cc(-c2ccnn2C)c2ccnc(-c3ccn[nH]3)c2n1 (stereo not given) + COC1C(OC(N)=O)C(O)C(Oc2ccc3c(O)c(NC(=O)c4ccc(O)c(CC=C(C)C)c4)c(=O)oc3c2C)OC1(C)C .
Reply: 0.0

Task item: Each molecule tested received a call. Report the one for CCc1cc2c(N3CCc4c(cc(Cn5ccnc5)cc4-c4cn(C)nc4C(F)(F)F)C3=O)ccnc2c(OC)n1 + COC1C(OC(N)=O)C(O)C(Oc2ccc3c(O)c(NC(=O)c4ccc(O)c(CC=C(C)C)c4)c(=O)oc3c2C)OC1(C)C .
Reply: 0.0

Task item: Each molecule tested received a call. Report the one for COc1cc2cc(C(=O)CCC(=O)O)sc2cc1OC + Nc1ccc(C#CCN(C(=O)Cc2ncc(C(F)(F)F)cc2C(F)(F)F)c2ccc(F)cc2)nn1 .
Reply: 0.0

Task item: Each molecule tested received a call. Report the one for CNCc1ccc(-c2[nH]c3cc(F)cc4c3c2CCNC4=O)cc1 + COC1C(OC(N)=O)C(O)C(Oc2ccc3c(O)c(NC(=O)c4ccc(O)c(CC=C(C)C)c4)c(=O)oc3c2C)OC1(C)C .
Reply: 0.0

Task item: Each molecule tested received a call. Report the one for C=CC(=O)N1CCN(c2nc(=O)n(-c3c(C)ccnc3C(C)C)c3nc(-c4c(O)cccc4F)c(F)cc23)C(C)C1 (stereo not given) + COC1C(OC(N)=O)C(O)C(Oc2ccc3c(O)c(NC(=O)c4ccc(O)c(CC=C(C)C)c4)c(=O)oc3c2C)OC1(C)C .
Reply: 0.0

Task item: Each molecule tested received a call. Report the one for CCc1cc2c(N3CCc4c(cc(Cn5ccnc5)cc4-c4cn(C)nc4C(F)(F)F)C3=O)cc(C)nc2c(OC)n1 + Cc1cccc(N(C)C(=O)C2C(O)CCN2c2nc(C)cc(C(F)(F)F)c2C#N)c1 .
Reply: 0.0

Task item: Each molecule tested received a call. Report the one for COc1cccc2c1C(=O)c1c(O)c3c(c(O)c1C2=O)CC(O)(C(=O)CO)CC3OC1CC(N)C(O)C(C)O1 (stereo not given) + Nc1ccc(C#CCN(C(=O)Cc2ncc(C(F)(F)F)cc2C(F)(F)F)c2ccc(F)cc2)nn1 .
Reply: 1.0

Task item: Each molecule tested received a call. Report the one for CC(C)n1c(=O)n(C)c2cnc3cc(F)c(-c4ccc(OCCCN5CCCCC5)nc4)cc3c21 + Nc1ccc(C#CCN(C(=O)Cc2ncc(C(F)(F)F)cc2C(F)(F)F)c2ccc(F)cc2)nn1 .
Reply: 0.0
